protocol: AP1 Signaling Pathway (AID 357);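 also: ME-180 reporter cells stimulated with EGF at its EC50 level; % is scaled to controls: 0 for no effect and ±100 for the full control effect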
details: ME-180 (cervical carcinoma) AP-1-bla reporter, EGF-induced, beta-lactamase ratio, 5 h; at 7.69 µM (top of the series) unless noted
Inconclusive results are not listed.
Returns label 1 if the recorded activity change, negative = inhibition is greater than or equal to -10%, and label 0 otherwise.

**Query** Is the recorded value of activity change, negative = inhibition equal to or greater than -10% for this compound? "CNc1nc(-c2ccccc2C)nc2ccccc12"
**Result** label 1

**Query** Is the recorded value of activity change, negative = inhibition equal to or greater than -10% for this compound? "Cc1cccc(CNc2nc(-c3ccoc3)nc3ccccc23)c1"
**Result** label 1

**Query** Is the recorded value of activity change, negative = inhibition equal to or greater than -10% for this compound? "COc1ccc(C(=O)N2CCC3(CCN(Cc4nccs4)CC3)CC2)cc1"
**Result** label 0

**Query** Is the recorded value of activity change, negative = inhibition equal to or greater than -10% for this compound? "O=C(c1cc(C(F)(F)F)cc(C(F)(F)F)c1)N1CCC2(CCN(Cc3ccccc3)CC2)CC1"
**Result** label 1

**Query** Is the recorded value of activity change, negative = inhibition equal to or greater than -10% for this compound? "CC(C)CN1CCC2(CC1)CCN(C(=O)c1cnccn1)CC2"
**Result** label 1

**Query** Is the recorded value of activity change, negative = inhibition equal to or greater than -10% for this compound? "CCNc1ncc2nc(-c3cn(C)c4ccccc34)c(=O)n(Cc3cccs3)c2n1"
**Result** label 0

----------
test_system: Glucocorticoid receptor (Homo sapiens)
protocol: GR-EFC Redistribution (AID 451); also: potency is read from the fitted curve at half-maximal effect
details: CHO-K1 GR-EFC translocation, beta-gal luminescence, 2 h
Activity calls are given as the source filed them. Calls follow the shape of the full dose curve.
Record form. Attribute: Potency. Fill in for each entry.

**Query** Retrieve Potency measured for "COCCn1c(=O)c(-c2ccc(OC)cc2)nc2cnc(N3CCN(C)CC3)nc21" and print it.
**Result** > 46 µM (inactive)

**Query** Retrieve Potency measured for "Cn1cccc1C(=O)N1CCC2(CCCN(C(=O)Nc3cccc(C#N)c3)C2)CC1" and print it.
**Result** > 46 µM (inactive)

**Query** Retrieve Potency measured for "O=c1c(-c2ccc(F)cc2)nc2cnc(N3CCOCC3)nc2n1-c1ccccc1" and print it.
**Result** > 46 µM (inactive)

**Query** Retrieve Potency measured for "COc1ccccc1CCn1c(=O)cnc2cncnc21" and print it.
**Result** > 46 µM (inactive)

**Query** Retrieve Potency measured for "COc1cccc(Cn2c(=O)c(-c3cc(F)cc(F)c3)nc3cncnc32)c1" and print it.
**Result** > 46 µM (inactive)

**Query** Retrieve Potency measured for "N#Cc1ccc(CN2CCC3(CC2)CCN(C(=O)c2cc(C(F)(F)F)cc(C(F)(F)F)c2)CC3)cc1" and print it.
**Result** > 46 µM (inactive)

**Query** Retrieve Potency measured for "CN1CC[C@@]2(CCCN(S(=O)(=O)c3ccccc3)C2)C1" and print it.
**Result** > 46 µM (inactive)

**Query** Retrieve Potency measured for "Cc1cccc(CNc2ccnc(-c3cccc(C#N)c3)n2)c1" and print it.
**Result** > 46 µM (inactive)

**Query** Retrieve Potency measured for "O=S(=O)(c1ccccc1)N1CCC2(CCCN(Cc3nccs3)C2)CC1" and print it.
**Result** > 46 µM (inactive)

**Query** Retrieve Potency measured for "O=C(c1cccc(F)c1)N1CCC[C@@]2(CCN(c3ccccn3)C2)C1" and print it.
**Result** > 46 µM (inactive)

----------
test_system: Dual specificity protein kinase CLK4 (Homo sapiens) (UniProt Q9HAZ1)
Sequence (Q9HAZ1 whole entry, looked up): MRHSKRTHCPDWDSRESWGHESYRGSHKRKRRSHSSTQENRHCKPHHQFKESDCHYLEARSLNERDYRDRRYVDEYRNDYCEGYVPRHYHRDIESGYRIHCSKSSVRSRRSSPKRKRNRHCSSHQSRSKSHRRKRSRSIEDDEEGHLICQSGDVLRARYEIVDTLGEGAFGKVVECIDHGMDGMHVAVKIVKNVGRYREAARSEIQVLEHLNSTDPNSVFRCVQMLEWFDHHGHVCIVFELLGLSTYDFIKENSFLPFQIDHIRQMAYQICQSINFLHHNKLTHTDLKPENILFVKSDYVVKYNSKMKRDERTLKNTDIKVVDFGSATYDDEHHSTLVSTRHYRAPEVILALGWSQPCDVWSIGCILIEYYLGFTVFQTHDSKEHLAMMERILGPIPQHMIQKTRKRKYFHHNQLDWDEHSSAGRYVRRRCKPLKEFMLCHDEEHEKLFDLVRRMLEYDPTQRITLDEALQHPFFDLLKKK
protocol: qHTS Assay for Inhibitors of CDC-like Kinase 4 (ADP-Glo Assay) (AID 1771); also: nearly all actives have a fitted effect of over 70% in size
details: recombinant CLK4, ADP-Glo luminescence; series mostly up to 80 µM
Records with an inconclusive call do not appear. The source made the active and inactive calls. Calls come from the whole dose curve; as a rule, active = well fitted inhibition curve with a large enough effect; inconclusive = small, poorly fitted or top-dose-only effect; inactive = flat fitted curve, though single readings scatter.
The reply should name one outcome from active, inactive

**Query** Please share the test call associated with "COc1ncc2nc(-c3ccc(Cl)cc3)c(=O)n(Cc3cccs3)c2n1" .
**Result** inactive

**Query** Please share the test call associated with "Clc1ccccc1-c1cncnc1NCCN1CCOCC1" .
**Result** inactive

**Query** Please share the test call associated with "COc1cccc(Cn2c(=O)c(-c3cccc(C#N)c3)nc3cnc(N4CCOCC4)nc32)c1" .
**Result** inactive

**Query** Please share the test call associated with "COCCn1c(=O)c(C)nc2cnc(N3CCOCC3)nc21" .
**Result** inactive

**Query** Please share the test call associated with "O=c1c(-c2ccccc2)nc2cnc(Oc3cccc(Cl)c3)nc2n1C1CC1" .
**Result** inactive

**Query** Please share the test call associated with "c1cc(NC2CC2)nc(-c2ccoc2)n1" .
**Result** inactive

**Query** Please share the test call associated with "COc1cccc(-c2nc(NCc3ccc(OC)cc3OC)c3ccccc3n2)c1" .
**Result** inactive

**Query** Please share the test call associated with "COc1cccc(Cn2c(=O)c(-c3ccc(Cl)cc3)nc3cnc(N4CCNCC4)nc32)c1" .
**Result** inactive

**Query** Please share the test call associated with "O=c1c(-c2ccc(F)cc2)nc2cncnc2n1Cc1ccccc1" .
**Result** inactive

**Query** Please share the test call associated with "COc1cccc(-c2nc(N(C)Cc3ccco3)c3ccccc3n2)c1" .
**Result** active

**Query** Please share the test call associated with "CN(C)c1ccc(-c2cncnc2Nc2ccc(F)cc2)cc1" .
**Result** active

----------
test_system: Cytochrome P450 3A4 (Homo sapiens)
protocol: qHTS Assay for Activators of Cytochrome P450 3A4 (AID 885); also: nearly all actives have a fitted effect of over 65% in size
details: recombinant CYP3A4, Luciferin-PPXE luminescence, 60 min; series mostly up to 57.1 µM
The source made the active and inactive calls. Calls follow the shape of the dose curve; as a rule, active = well fitted activation curve with a large enough effect; inconclusive = small, poorly fitted or top-dose-only effect; inactive = no such curve, though single readings can be large or run the other way.
The reply should name one outcome from 1.0 = active, 0.0 = inactive

**Query** Please share the test call associated with "COCCn1c(=O)c(C)nc2cnc(OC)nc21" .
**Result** 0.0

**Query** Please share the test call associated with "COc1ccc(NC(=O)N2CC3(CCN(C(=O)c4ccncc4)CC3)C2)cc1" .
**Result** 0.0

**Query** Please share the test call associated with "COCCn1c(=O)c(CCc2ccccc2)nc2cnc(Oc3ccc(OC)cc3)nc21" .
**Result** 0.0

**Query** Please share the test call associated with "COC(=O)N1CCC[C@@]2(CCN(C(=O)Nc3ccc(OC)cc3)C2)C1" .
**Result** 0.0

**Query** Please share the test call associated with "O=C(c1cnccn1)N1CCC2(CC1)CN(c1cccc(-c3ccccc3)c1)C2" .
**Result** 0.0

**Query** Please share the test call associated with "O=C(c1cnccn1)N1CCC2(CC1)CCN(c1ccccn1)CC2" .
**Result** 1.0

**Query** Please share the test call associated with "O=c1c(-c2cccs2)nc2cncnc2n1-c1ccccc1" .
**Result** 0.0

**Query** Please share the test call associated with "O=C(c1cnccn1)N1CCC2(CCCN(c3ccccn3)C2)CC1" .
**Result** 0.0

**Query** Please share the test call associated with "COc1ccc(NC(=O)N2CC[C@@]3(CCCN(C(=O)c4cccc(F)c4)C3)C2)cc1" .
**Result** 0.0

**Query** Please share the test call associated with "COCCn1c(=O)c(C)nc2cncnc21" .
**Result** 0.0

**Query** Please share the test call associated with "COc1ccc(-c2nc3cnc(OC)nc3n(-c3ccc(OC)cc3)c2=O)cc1" .
**Result** 0.0

----------
protocol: qHTS Assay for Lipid Storage Modulators (AID 1519); also: % is scaled to controls: 0 for no effect and ±100 for the full control effect
details: Drosophila S3 cells, BODIPY lipid droplet/cell ratio, laser cytometry; at 25.7 µM (top of the series); cells loaded with oleic acid
Results filed as inconclusive are left out.
Record form. Attribute: activity change, negative = inhibition. Fill in for each entry.
Kindly provide the numeric value in % only, without the unit symbol.

**Query** Retrieve activity change, negative = inhibition measured for "CO/N=C(\C(=O)N[C@@H]1C(=O)N2C(C(=O)O)=C(COC(C)=O)CS[C@@H]12)c1csc(N)n1" and print it.
**Result** -0.702

**Query** Retrieve activity change, negative = inhibition measured for "CC(=O)Oc1ccccc1C(=O)Oc1ccccc1C(=O)O" and print it.
**Result** -1.86

**Query** Retrieve activity change, negative = inhibition measured for "N[C@H](Cn1ccc(=O)c(O)c1)C(=O)O" and print it.
**Result** -2.4

**Query** Retrieve activity change, negative = inhibition measured for "NC(N)=NC[C@@H]1COC2(CCCCC2)O1" and print it.
**Result** -0.418

**Query** Retrieve activity change, negative = inhibition measured for "CC(C)(O/N=C(\C(=O)N[C@@H]1C(=O)N2C(C(=O)[O-])=C(C[n+]3ccccc3)CS[C@@H]12)c1csc(N)n1)C(=O)O" and print it.
**Result** 0.159

**Query** Retrieve activity change, negative = inhibition measured for "COc1c2ccoc2nc2c(OC)c(OC[C@H](O)C(C)(C)O)ccc12" and print it.
**Result** -1.84

**Query** Retrieve activity change, negative = inhibition measured for C[C@]12CCC3c4ccc(O)cc4CCC3[C@@H]1CCC2=O (stereo not given in full) and print it.
**Result** -0.972

**Query** Retrieve activity change, negative = inhibition measured for "CCCN(CCC)C(=O)[C@@H](CCC(=O)O)NC(=O)c1ccccc1" and print it.
**Result** 0.554

**Query** Retrieve activity change, negative = inhibition measured for "C/C=C\C(=O)N(CC)c1ccccc1C" and print it.
**Result** -4.01

**Query** Retrieve activity change, negative = inhibition measured for "CC1=C(C(=O)O)N2C(=O)[C@@H](NC(=O)[C@@H](N)c3ccccc3)[C@@H]2SC1" and print it.
**Result** -1.09
